The reported measurements were obtained from ChEMBL document CHEMBL4513136.

system: Staphylococcus aureus; settings: Concentration 32 ug.mL-1; ASSAY_TEST Inhibition of Bacterial Growth; detection method Absorption (OD600); MEDIA CAMHB; plate type 384well; NBS; CORNING #3640; time 18 hr
Description: Antibacterial activity against Staphylococcus aureus MRSA ATCC 43300 (CO-ADD:GP_020); MIC in CAMBH media, using NBS plates, by OD(600)
Measured potencies and affinities stand elsewhere.
This listing pairs compounds with measured Inhibition.
Provide the reading as a plain figure in %.

// below: answered compounds
• COc1ccccc1/C=C/C(=O)c1cc(OC)c(OC)cc1OC = 26.72
• COC(=O)C1(Cc2ccc(OCc3c(Cl)cccc3Cl)cc2)C(C)C(=O)N1Cc1ccc(OC)cc1 (stereo not given) = 19.17
• COc1ccc(OC)c(CC(=O)Nc2ccc(OC)cc2OC)c1 = 26.56
• O=C(Cc1cc(O)ccc1O)Nc1ccc(O)cc1 = 29.77
• O=C(OCc1ccccc1)N1C(=O)C(c2ccccc2NC(=O)C(F)(F)F)=C(O)C1Cc1ccccc1 (stereo not given) = 36.54

Query: Return reported Inhibition; argument: COC(=O)c1c(C(Cc2ccccc2)NC(=O)OCc2ccccc2)[nH]c2ccccc12 (stereo not given)
Result: 22.9

Query: Param item: COc1ccc(OC)c(C(=O)/C=C/c2ccccc2O)c1
Result: 11.52

Query: How about this compound: COc1ccc(OC)c(-c2cn(-c3ccc(OC)c(OC)c3)nn2)c1
Result: -11.96

Query: Do the same for COc1ccc(CN2C(=O)C(C)C2(Cc2cn(C(=O)OC(C)(C)C)c3ccccc23)C(=O)OC(C)(C)C)cc1 (stereo not given) please
Result: 27.02

Query: Repeat with COc1ccc(C(=O)/C=C/c2ccc(OC)cc2OC)cc1
Result: 6.51

* * *

system: Escherichia coli; conditions: Concentration 32 ug.mL-1; ASSAY_TEST Inhibition of Bacterial Growth; detection method Absorption (OD600); MEDIA CAMHB; plate type 384well; NBS; CORNING #3640; time 18 hr
Description: Antibacterial activity against Escherichia coli ATCC 25922 (CO-ADD:GN_001); MIC in CAMBH media using NBS plates, by OD(600)
Potency and affinity values are given separately.
Listed next: entries and their corresponding Inhibition.
Just the number in %, nothing appended.

- O=C(/C=C/c1ccccc1O)c1cc(O)c(O)cc1O: -8.37
- COC(=O)c1c(C(Cc2ccccc2)NC(=O)OCc2ccccc2)[nH]c2ccccc12 (centres undefined): -13.62
- COc1ccccc1/C=C/C(=O)c1cc(OC)c(OC)cc1OC: -13.16

Query: Data request, read-out Inhibition, for CC1C(=O)N(Cc2ccc(OCCN3CCOCC3)cc2)C1(Cc1ccccc1)C(=O)O (centres undefined)
Result: -10.5

* * *

tested on: Staphylococcus aureus; conditions: Concentration 32 ug.mL-1; ASSAY_TEST Inhibition of Bacterial Growth; detection method Absorption (OD600); MEDIA CAMHB; plate type 384well; NBS; CORNING #3640; time 18 hr
Results with a measured potency or affinity are listed apart.
READOUT TYPE: Inhibition (%)
Note: unit % is implicit; provide only the numeric part.

- O=C(Cc1cc(O)ccc1O)Nc1cc(O)ccc1O: 22.67
- O=C(Cc1cc(O)ccc1O)Nc1ccc(O)cc1O: 17.97
- COc1ccc(OC)c(C(=O)/C=C/c2c[nH]c3ccc(OC)cc23)c1: 20.69

Query: Item O=C(/C=C/c1ccccc1O)c1cc(O)c(O)cc1O has what recorded Inhibition?
Result: 26.82

Query: // repeat for O=C(CCc1ccc(O)cc1O)c1cc(O)ccc1O and report
Result: 23.73

* * *

tested on: Escherichia coli; settings: Concentration 32 ug.mL-1; ASSAY_TEST Inhibition of Bacterial Growth; detection method Absorption (OD600); MEDIA CAMHB; plate type 384well; NBS; CORNING #3640; time 18 hr
Potency and affinity values are given separately.
// reported Inhibition for each item listed

Query: GET /values?readout=Inhibition&system=Escherichia coli&item= O=C(Cc1cc(O)ccc1O)Nc1cc(O)ccc1O
Result: -14.95%

Query: Let us now turn to O=C(Cc1cc(O)ccc1O)Nc1ccc(O)cc1
Result: -10.96%

* * *

Parameter: Inhibition. Scope: all listed entries.
tested on: Staphylococcus aureus; conditions: Concentration 32 ug.mL-1; ASSAY_TEST Inhibition of Bacterial Growth; detection method Absorption (OD600); MEDIA CAMHB; plate type 384well; NBS; CORNING #3640; time 18 hr
Entries with a potency or affinity are not part of this list.

• COc1ccc(NC(=O)Cc2cc(OC)ccc2OC)cc1 = 31.14%
• COc1ccc(OC)c(C(=O)CCc2ccccc2O)c1 = 15.3%

Alright, here's another compound for you.
Query: Consider the compound shown here: COc1ccc(OC)c(C(=O)CCc2ccc(O)cc2)c1 What is its recorded Inhibition?
Result: 16.63%

* * *

The entries below are paired with their reported Inhibition.
test system: Escherichia coli; settings: Concentration 32 ug.mL-1; ASSAY_TEST Inhibition of Bacterial Growth; detection method Absorption (OD600); MEDIA CAMHB; plate type 384well; NBS; CORNING #3640; time 18 hr
Potency and affinity values are given separately.
Please give a number only; it is taken to be in %.

* Oc1ccc(-n2cc(-c3cc(O)ccc3O)nn2)cc1 | -16.85
* COc1ccc(OC)c(CC(=O)Nc2ccc(OC)cc2OC)c1 | -12.34
* O=C(Nc1ccc(O)cc1O)Nc1cc(O)ccc1O | -13.5

Query: // query Inhibition value for entry COc1ccc(OC)c(CC(=O)Nc2cc(OC)ccc2OC)c1
Result: -12.93

Query: Another compound to check: COc1ccc(OC)c(C(=O)/C=C/c2ccccc2O)c1
Result: -22.92

Query: Entry to check: COc1ccc(CN2C(=O)C(C)C2(Cc2cn(C(=O)OC(C)(C)C)c3ccccc23)C(=O)OC(C)(C)C)cc1 (centres undefined)
Result: -6.98

* * *

test system: Escherichia coli; conditions: Concentration 32 ug.mL-1; ASSAY_TEST Inhibition of Bacterial Growth; detection method Absorption (OD600); MEDIA CAMHB; plate type 384well; NBS; CORNING #3640; time 18 hr
Entries with a potency or affinity are not part of this list.
Below, each entry is listed alongside its reported Inhibition.
Numeric only. Scale: %

* COC(=O)C1(Cc2ccc(OCc3c(Cl)cccc3Cl)cc2)C(C)C(=O)N1Cc1ccc(OC)cc1 (stereo not drawn) | -12.56
* COc1ccc(C(=O)/C=C/c2ccc(OC)cc2OC)cc1 | -22.4

Now turn to the next compound.
Query: // lookup Inhibition for O=C(OCc1ccccc1)N1C(=O)C(c2ccccc2NC(=O)C(F)(F)F)=C(O)C1Cc1ccccc1 (stereo not drawn)
Result: -6.54
